- targetDesc: human p110α expressed in budding yeast (Homo sapiens)
- Construct: expressed in transfected cells; host or cells: Saccharomyces cerevisiae AD1-9 (LEU2-disrupted), galactose-induced
- Sequence (P42336 whole entry): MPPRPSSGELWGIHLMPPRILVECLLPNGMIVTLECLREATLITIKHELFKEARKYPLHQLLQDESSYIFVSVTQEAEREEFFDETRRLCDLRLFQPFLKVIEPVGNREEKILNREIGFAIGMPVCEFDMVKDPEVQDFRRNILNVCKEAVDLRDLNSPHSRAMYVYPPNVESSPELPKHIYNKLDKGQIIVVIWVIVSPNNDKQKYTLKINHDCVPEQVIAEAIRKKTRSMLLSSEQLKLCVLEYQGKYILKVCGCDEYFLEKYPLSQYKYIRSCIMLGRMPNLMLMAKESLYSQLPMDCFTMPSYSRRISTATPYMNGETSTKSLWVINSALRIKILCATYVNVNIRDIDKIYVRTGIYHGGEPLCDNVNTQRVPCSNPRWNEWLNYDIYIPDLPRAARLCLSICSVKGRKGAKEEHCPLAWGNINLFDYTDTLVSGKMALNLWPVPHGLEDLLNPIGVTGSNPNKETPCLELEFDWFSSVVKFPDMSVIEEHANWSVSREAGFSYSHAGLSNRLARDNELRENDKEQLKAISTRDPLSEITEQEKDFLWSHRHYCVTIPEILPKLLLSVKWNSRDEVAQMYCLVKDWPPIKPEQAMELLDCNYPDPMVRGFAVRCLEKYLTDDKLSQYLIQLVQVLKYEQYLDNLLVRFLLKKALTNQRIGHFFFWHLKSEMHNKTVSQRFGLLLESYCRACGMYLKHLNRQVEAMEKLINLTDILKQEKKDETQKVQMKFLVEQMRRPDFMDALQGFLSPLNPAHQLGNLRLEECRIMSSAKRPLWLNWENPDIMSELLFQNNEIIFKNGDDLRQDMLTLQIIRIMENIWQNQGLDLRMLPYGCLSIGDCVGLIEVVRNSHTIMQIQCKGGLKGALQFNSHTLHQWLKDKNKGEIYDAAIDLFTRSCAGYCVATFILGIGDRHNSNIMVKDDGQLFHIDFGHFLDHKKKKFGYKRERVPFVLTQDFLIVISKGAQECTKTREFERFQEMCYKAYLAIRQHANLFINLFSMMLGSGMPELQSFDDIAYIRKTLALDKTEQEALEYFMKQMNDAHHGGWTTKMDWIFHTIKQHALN
- assayName: Screening of PI3K inhibitor using budding yeast (recovery from cell proliferation disorder caused by p110α)
- Type: cell-based
- measurementSetup: AD1-9 transformant expressing p110α, compound 5 μM, 24 hours, average of three tests
For each of the compounds below, state its A600.
One number for each entry.

Recorded A600, per entry:
Documented A600 of CC(C)[C@H]1NC(=O)CC2/C=C/CCSSCC(NC1=O)C(=O)N[C@H](Cc1ccccc1)C(=O)NCC(=O)O2 (stereo in doubt) [FK-A5] : 0.449

Documented A600 of CC[C@@H](C)C1NC(=O)C2CSSCC/C=C/C(CC(=O)N[C@H](C)C(=O)N2)OC(=O)C[C@@H]1O (stereo partly drawn) [SP-3, 5″-epi-spiruchostatin B] : 0.464

Documented A600 of CC(C)C1NC(=O)CC2/C=C/CCSSCC(NC1=O)C(=O)N[C@H](C)C(=O)NCC(=O)O2 (stereo partly drawn) [FK-A3] : 0.380

Respectfully, I request A600 for each entry included below.
1. C/C=C1\NC(=O)[C@H]2CSSCC/C=C/[C@H](CC(=O)N[C@H](C(C)C)C(=O)N2)OC(=O)[C@H](C(C)C)NC1=O [FK228, romidepsin]
2. O=c1cc(N2CCOCC2)oc2c(-c3ccccc3)cccc12 [LY294002]
3. CC(C)C1NC(=O)C2CSSCC/C=C/C(CC(=O)N[C@H](C)C(=O)N2)OC(=O)C[C@@H]1O (stereo partly drawn) [SP-1, spiruchostatin A]

(A)
0.385
0.482
0.412

###

For each of the compounds below, state its pIC50.
- targetDesc: PI3K (p110α/p85α) (Homo sapiens, UniProt P42336)
- Construct: purchased Carna Biosciences, Inc. (Kobe); contract measurement
- Sequence (P42336 whole entry): as above
- Sequence (P27986 whole entry partner): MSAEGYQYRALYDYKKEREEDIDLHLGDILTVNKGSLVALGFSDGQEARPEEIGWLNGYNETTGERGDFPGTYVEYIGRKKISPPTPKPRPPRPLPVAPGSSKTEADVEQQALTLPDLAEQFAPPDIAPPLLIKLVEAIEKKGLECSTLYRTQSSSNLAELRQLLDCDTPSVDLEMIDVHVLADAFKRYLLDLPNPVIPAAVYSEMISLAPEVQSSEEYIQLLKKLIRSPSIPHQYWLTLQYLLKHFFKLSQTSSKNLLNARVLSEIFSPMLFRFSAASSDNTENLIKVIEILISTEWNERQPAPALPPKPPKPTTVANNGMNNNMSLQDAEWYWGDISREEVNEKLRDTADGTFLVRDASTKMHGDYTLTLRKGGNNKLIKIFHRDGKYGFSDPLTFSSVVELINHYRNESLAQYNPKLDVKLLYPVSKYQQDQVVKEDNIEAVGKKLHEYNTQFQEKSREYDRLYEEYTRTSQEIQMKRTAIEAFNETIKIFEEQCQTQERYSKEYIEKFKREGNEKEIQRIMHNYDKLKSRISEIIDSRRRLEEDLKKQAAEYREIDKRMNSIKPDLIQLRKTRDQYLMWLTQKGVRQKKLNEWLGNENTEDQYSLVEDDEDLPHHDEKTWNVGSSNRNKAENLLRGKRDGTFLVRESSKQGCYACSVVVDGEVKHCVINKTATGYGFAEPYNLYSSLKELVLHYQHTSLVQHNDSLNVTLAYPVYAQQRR
- assayName: In vitro PI3K inhibitory activity by mobility shift assay (Carna Biosciences)
- Assay type: biochemical
- measurementSetup: Table 3, PI3K (p110α/p85α); read-out: PI3K IC50
- Procedure: The PI3K (p110α/p85α) inhibitory activity was evaluated at Carna Biosciences, Inc. (Kobe) by mobility shift assay which included isolation and quantification of a substrate and the phosphorylated substrate based on the mobility in a capillary (https://www.carnabio.com/japanese/product/search.cgi?mode=profiling). […] After allowing the reaction to occur for 5 hours at room temperature, the mobility shift assay was performed. […] Inhibition rate was calculated as follows. […]
One number for each entry, as −log10 of the molar value.

Recorded pIC50, per entry:
Documented pIC50 of CC(C)[C@H]1NC(=O)CC2/C=C/CCSSCC(NC1=O)C(=O)N[C@H](Cc1ccccc1)C(=O)NCC(=O)O2 (stereo in doubt) : 4.56

Documented pIC50 of CC(C)[C@H]1NC(=O)CC2/C=C/CCSSCC(NC1=O)C(=O)N[C@H](Cc1ccc(O)cc1)C(=O)NCC(=O)O2 (some centres unmarked) : 4.85

Documented pIC50 of CC(C)C[C@H]1NC(=O)C2CSSCC/C=C/C(CC(=O)N[C@H](C(C)C)C(=O)N2)OC(=O)CNC1=O (some centres unmarked) : 4.49

Respectfully, I request pIC50 for each entry included below.
1. CC(C)[C@H]1NC(=O)CC2/C=C/CCSSCC(NC1=O)C(=O)N[C@H](Cc1ccc3ccccc3c1)C(=O)NCC(=O)O2 (some centres unmarked)
2. COc1ccc(C[C@H]2NC(=O)C3CSSCC/C=C/C(CC(=O)N[C@H](C(C)C)C(=O)N3)OC(=O)CNC2=O)cc1 (some centres unmarked)
3. CC(C)C[C@@H]1NC(=O)C2CSSCC/C=C/C(CC(=O)N[C@H](C(C)C)C(=O)N2)OC(=O)CNC1=O (some centres unmarked)
4. CC(C)[C@H]1NC(=O)CC2/C=C/CCSSCC(NC1=O)C(=O)N[C@@H](Cc1cccc3ccccc13)C(=O)NCC(=O)O2 (some centres unmarked)
5. CC(C)[C@H]1NC(=O)CC2/C=C/CCSSCC(NC1=O)C(=O)N[C@H](Cc1ccc(F)cc1)C(=O)NCC(=O)O2 (some centres unmarked)

(A)
5.07
4.57
4.35
5.14
4.69

###

- targetDesc: PI3K (p110α/p85α) (Homo sapiens)
- Construct: purchased Carna Biosciences, Inc. (Kobe); contract measurement
- assayName: In vitro PI3K inhibitory activity by mobility shift assay (Carna Biosciences)
- Type: biochemical
- measurementSetup: 50 μM ATP; read-out: IC50 for PI3K
measuredProperty: IC50 (µM)
Give bare numbers, in µM.

Documented IC50 of CC(C)[C@H]1NC(=O)CC2/C=C/CCSSCC(NC1=O)C(=O)N[C@H](Cc1ccccc1)C(=O)NCC(=O)O2 (stereo in doubt) : 26.2

###

- targetDesc: PI3K (p110α/p85α) (Homo sapiens)
- Construct: purchased Carna Biosciences, Inc. (Kobe); contract measurement
- assayName: In vitro PI3K inhibitory activity by mobility shift assay (Carna Biosciences)
- Assay type: biochemical
- measurementSetup: high ATP concentration (500 μM); read-out: IC50 for PI3K
measuredProperty: IC50

Documented IC50 of C/C=C1\NC(=O)[C@H]2CSSCC/C=C/[C@H](CC(=O)N[C@H](C(C)C)C(=O)N2)OC(=O)[C@H](C(C)C)NC1=O [FK228, romidepsin] : 125 µM
